- condition: in ethanol, 308.15 K
observable: solubility (mole fraction)

Input line: Report solubility (mole fraction) for `CC1(C)[C@@H](O)CC[C@]2(C)[C@H]3C(=O)C=C4[C@@H]5C[C@@](C)(C(=O)O)CC[C@]5(C)CC[C@@]4(C)[C@]3(C)CC[C@@H]12` please.
Output line: 0.0147

* * *

- condition: in DMF, 313.15 K
observable: solubility (mole fraction)

Input line: What value of solubility (mole fraction) has been reported for the following compound? `CC1(C)[C@@H](O)CC[C@]2(C)[C@H]3C(=O)C=C4[C@@H]5C[C@@](C)(C(=O)O)CC[C@]5(C)CC[C@@]4(C)[C@]3(C)CC[C@@H]12`
Output line: 0.0692
